# System: His-Tag L-alanine amide hydrolase
# testName: Study of substrate specificity using His-Tag purified enzyme
# Format: biochemical, Corynebacterium glutamicum strain ATCC 13286
# conditionDescription: 100 mM L-alanine amide, 150 mM test amino acid, pH 9.0, enzyme 0.0045 U/ml, 25° C., 3 hours
Residues, ends and D or L forms follow the SMILES beside them.
The entries below come with measured peptide synthesized from L-alanine amide and test amino acid values attached.
# number only, unit mM dropped from output

Illustrative cases are given below, each with its answer.
# compound, readoutValue
records = [
    ("C[C@H](N)C(=O)N1CCC[C@H]1C(=O)O [L-alanyl-L-proline] (H-Ala-Pro-OH)", 0.81),
    ("CC(C)[C@H](NC(=O)[C@H](C)N)C(=O)O [L-alanyl-L-valine] (H-Ala-Val-OH)", 9.72),
    ("CC(C)C[C@H](NC(=O)[C@H](C)N)C(=O)O [L-alanyl-L-leucine] (H-Ala-Leu-OH)", 9.60),
    ("C[C@H](N)C(=O)N[C@@H](CCC(=O)O)C(=O)O [L-alanyl-L-glutamate] (H-Ala-Glu-OH)", 1.20),
    ("C[C@H](N)C(=O)NCC(=O)O [L-alanyl-glycine] (H-Ala-Gly-OH)", 7.54),
    ("C[C@H](N)C(=O)N[C@@H](Cc1c[nH]cn1)C(=O)O [L-alanyl-L-histidine] (H-Ala-His-OH)", 12.52),
]

Q: Identify peptide synthesized from L-alanine amide and test amino acid associated with the compound CC[C@H](C)[C@H](NC(=O)[C@H](C)N)C(=O)O [L-alanyl-L-isoleucine] (H-Ala-Ile-OH)
A: 14.11

Q: Identify peptide synthesized from L-alanine amide and test amino acid associated with the compound C[C@H](N)C(=O)N[C@@H](CCCNC(=N)N)C(=O)O [L-alanyl-L-arginine] (H-Ala-Arg-OH)
A: 27.69

----------
# System: His-Tag L-alanine amide hydrolase
# testName: Study of substrate specificity using His-Tag purified enzyme
# Type: biochemical, Corynebacterium glutamicum strain ATCC 13286
# conditionDescription: 100 mM L-alanine amide, 150 mM test amino acid, pH 9.0, enzyme 0.0045 U/ml, 25° C., 3 hours
Residues, ends and D or L forms follow the SMILES beside them.
experimentalReadout: peptide synthesized from L-alanine amide and test amino acid (mM)
# number only, unit mM dropped from output

Illustrative cases are given below, each with its answer.
# compound, unitAnnotation, readoutValue
rows = [
    ("C[C@H](N)C(=O)N[C@@H](Cc1ccc(O)cc1)C(=O)O [L-alanyl-L-tyrosine] (H-Ala-Tyr-OH)", "mM", 1.52),
    ("C[C@H](N)C(=O)N[C@@H](C)C(=O)O [L-alanyl-L-alanine] (H-Ala-Ala-OH)", "mM", 10.11),
    ("C[C@H](N)C(=O)N[C@H](C(=O)O)[C@@H](C)O [L-alanyl-L-threonine] (H-Ala-Thr-OH)", "mM", 20.76),
]

Below: the item to evaluate.
Q: Identify peptide synthesized from L-alanine amide and test amino acid associated with the compound CSCC[C@H](NC(=O)[C@H](C)N)C(=O)O [L-alanyl-L-methionine] (H-Ala-Met-OH)
A: 14.49

----------
# Tested on: His-Tag L-alanine amide hydrolase
# testName: Study of substrate specificity using His-Tag purified enzyme
# Assay type: biochemical, Corynebacterium glutamicum strain ATCC 13286
# conditionDescription: 100 mM L-alanine amide, 150 mM test amino acid, pH 9.0, enzyme 0.0045 U/ml, 25° C., 3 hours
Residues, ends and D or L forms follow the SMILES beside them.
The entries below come with measured peptide synthesized from L-alanine amide and test amino acid values attached.
# number only, unit mM dropped from output

Illustrative cases are given below, each with its answer.
# compound, readoutValue
records = [
    ("C[C@H](N)C(=O)N[C@@H](Cc1ccccc1)C(=O)O", 13.42),
    ("C[C@H](N)C(=O)N[C@@H](CCCCN)C(=O)O [L-alanyl-L-lysine] (H-Ala-Lys-OH)", 18.83),
    ("C[C@H](N)C(=O)N[C@@H](CO)C(=O)O [L-alanyl-L-serine] (H-Ala-Ser-OH)", 24.67),
]

Q: Identify peptide synthesized from L-alanine amide and test amino acid associated with the compound C[C@H](N)C(=O)N[C@@H](Cc1c[nH]c2ccccc12)C(=O)O [L-alanyl-L-tryptophan] (H-Ala-Trp-OH)
A: 10.09
